tested on: Pseudomonas aeruginosa; experiment: In vitro antibacterial activity against P. aeruginosa(GC 1544 oprd) following pre-incubation in mouse serum; assay type: functional
QUANTITY_NAME: MIC (µg/mL)

>  <COMPOUND>
CCOC(=O)OCOC(=O)C1=C(S[C@@H]2CCO[C@@H]2CNC(=O)OC(C)OC(=O)C(C)(C)C)[C@H](C)C2[C@@H]([C@@H](C)O)C(=O)N12 (stereo partly drawn)

>  <MIC / µg/mL>
64

$$$$

(a) CCOC(=O)OCOC(=O)C1=C(S[C@@H]2CCO[C@@H]2CNC(=O)OCOC(=O)C(C)(C)C)[C@H](C)C2[C@@H]([C@@H](C)O)C(=O)N12 (stereo partly drawn)
(b) CC(C)C(=O)OCOC(=O)NC[C@H]1OCC[C@H]1SC1=C(C(=O)[O-])N2C(=O)[C@H]([C@@H](C)O)C2[C@H]1C.[Na+] (stereo partly drawn)
// query Returns the identifier with the smallest measured MIC among a and b . Kindly state the label of the option you pick.
// result b
